Reported values of solubility kinetic for individual entries
conditions: buffer; pH 7.4; 200.0 µM
Give the value in µg/mL but do not write µg/mL after it.

Previously resolved entries follow.
> print(dat)
                                   compound  endpoint.value
1    Cc1ccc(C(=O)NCCCNC(=O)c2ccc(Cl)cc2)cn1            36.6
2  CC(NC(=O)/C=C/c1ccccc1[N+](=O)[O-])C1CC2CCC1C2 (centres undefined)             1.2
3    CCC(=O)Nc1c(-c2ccc(C)cc2)nc2ccc(C)cn12            30.4
4  N#Cc1ccccc1NC(=O)CSc1ccc([N+](=O)[O-])cn1             0.7
5       NS(=O)(=O)c1ccc(CNC(=S)NC2CCCC2)cc1            46.9

Query: Recall and state the measured solubility kinetic for `CN(C)C(=O)c1coc2nc3ccccc3nc12` .
Reply: 4

Query: Recall and state the measured solubility kinetic for `C=C1CCc2c([nH]c3ccc(OCC(C)C)cc23)C1=O` .
Reply: 0.8

Query: Recall and state the measured solubility kinetic for `Cc1ccc(-c2csc(NC(=O)CN3C(=O)CCC3=O)n2)cc1` .
Reply: 0.5

Query: Recall and state the measured solubility kinetic for `Cc1ccc(S(=O)(=O)N2CCN(C(=O)N3CCCC3)CC2)cc1` .
Reply: 48.7

Query: Recall and state the measured solubility kinetic for `CCOC(=O)/C(C#N)=C/Nc1cc(F)ccc1C` .
Reply: 3.2

Query: Recall and state the measured solubility kinetic for O=C1CC(N(O)c2ccccc2)C(=O)N1c1ccc(Cl)c(Cl)c1 (centres undefined) .
Reply: 9.8

Query: Recall and state the measured solubility kinetic for `CCOC(=O)c1cc(NC(=O)Nc2cc(C)ccn2)c(C)nc1C` .
Reply: 0.3

Query: Recall and state the measured solubility kinetic for `CSc1nc2c(c(=O)[nH]c(=O)n2C)n1Cc1ccc(Cl)cc1` .
Reply: 1.2
